target: T1, human MSLN-FL-his protein (human, UniProt Q13421 296-580); test: ELISA on coated antigen, antibody 0.001 nM
T1 construct: Self-made in HEK293E cells; also called human MSLN full-length protein; hMSLN-FL-his; not shown: His tag
T1 sequence (Q13421 other isoform, or with tags, fused parts or gaps): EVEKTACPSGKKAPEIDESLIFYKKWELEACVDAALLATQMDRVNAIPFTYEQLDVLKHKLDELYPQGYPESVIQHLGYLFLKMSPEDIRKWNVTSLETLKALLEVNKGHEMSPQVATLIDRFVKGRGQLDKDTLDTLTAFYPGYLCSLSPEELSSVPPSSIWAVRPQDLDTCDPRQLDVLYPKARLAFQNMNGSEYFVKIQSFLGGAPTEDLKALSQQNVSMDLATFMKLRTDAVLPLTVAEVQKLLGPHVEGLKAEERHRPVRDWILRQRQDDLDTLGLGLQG
// reported OD450 per item
Answer format: numeric, OD450 implied, no suffix.

Worked cases, answers included:
S009-F3.38.10 (antibody, human IgG1, kappa, V domains shown, Human-murine chimeric antibody: murine VH/VL on human IgG1 heavy and kappa light constant regions) VH: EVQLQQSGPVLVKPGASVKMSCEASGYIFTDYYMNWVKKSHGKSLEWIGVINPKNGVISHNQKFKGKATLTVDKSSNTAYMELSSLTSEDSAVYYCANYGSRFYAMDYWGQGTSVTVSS VL: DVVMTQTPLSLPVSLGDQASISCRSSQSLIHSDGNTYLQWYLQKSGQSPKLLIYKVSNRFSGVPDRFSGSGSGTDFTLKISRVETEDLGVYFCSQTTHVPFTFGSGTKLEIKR :: 0.06
S009-F3.45.21 (antibody, human IgG1, kappa, V domains shown, Human-murine chimeric antibody: murine VH/VL on human IgG1 heavy and kappa light constant regions) VH: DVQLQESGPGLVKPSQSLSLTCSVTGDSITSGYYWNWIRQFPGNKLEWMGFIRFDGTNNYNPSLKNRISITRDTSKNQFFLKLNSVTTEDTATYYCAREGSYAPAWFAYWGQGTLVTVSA VL: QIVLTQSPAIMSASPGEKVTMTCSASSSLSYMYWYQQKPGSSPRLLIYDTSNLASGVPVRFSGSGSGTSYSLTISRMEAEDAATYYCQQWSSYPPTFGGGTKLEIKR :: 0.35

Reported OD450 of S009-F3.16.1 (antibody, human IgG1, kappa, V domains shown, Human-murine chimeric antibody: murine VH/VL on human IgG1 heavy and kappa light constant regions) VH: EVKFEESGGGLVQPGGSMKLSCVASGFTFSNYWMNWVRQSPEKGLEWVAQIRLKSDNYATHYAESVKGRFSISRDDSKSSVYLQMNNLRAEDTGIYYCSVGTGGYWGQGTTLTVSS VL: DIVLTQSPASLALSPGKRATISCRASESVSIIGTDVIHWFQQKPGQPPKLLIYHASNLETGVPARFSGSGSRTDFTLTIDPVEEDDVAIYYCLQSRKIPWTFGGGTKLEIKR : 0.06

This collection of values is drawn from patent US20250250357A1.
